# Test system: dentate gyrus progenitors
# experimental-details: DCX expression in BrdU labeled progenitors in the dentate gyrus
# Assay type: in vivo, mice
# assay-context: 14 day treatment group
measurement-name: differentiation of dentate gyrus progenitors into DCX (doublecortin) expressing cells

substance: IPRNEADGMPINV (neurotrophic and/or neurogenic peptide) [Peptide 5]
measured: did not have any effect
//
substance: EDQQVHFTPTEG (neurotrophic and/or neurogenic peptide) [Peptide 9]
measured: did not have any effect
//
substance: CHQGCGGLFEC [Peptide 10, CNTF loop peptide, used as control]
measured: did not have any effect
